# measured-target: Hexose transporter 1 (Plasmodium falciparum)
# measurement-notes: ST_JUDE_LEISH: Cytotoxicity at 2uM final concentration against transgenic Leishmania Mexicana promastigotes LmPfHT that are glucose transport deficient and complemented with the Plasmodium falciparum hexose transporter. Activity is measured by DNA content using SYBR green in vitro
# Assay type: functional
assay-metric: inhibition (%)

molecule | number
O=C(/C=C/C=C/c1ccc(Cl)c(Cl)c1)NCCCCCN1CCCC2CCCCC21 (stereo not given) | 12.3
Fc1cccc2sc(Nc3nc(-c4ccccn4)cs3)nc12 | 0.63
Cc1cc(N[C@@H](Cc2ccccc2)C(=O)Nc2ccccc2)nc(NCCc2ccc(F)cc2)n1 | 3.68
CCNCc1cccc(-c2ccc3ccnc(N)c3c2)c1 | 3.12
O=C(Nc1cccc(C(F)(F)F)c1)c1ccc(S(=O)(=O)NC2CCN(CC3CCCCC3)CC2)cc1 | 1.62
O=C(Nc1ccc2c(c1)CCC2)N[C@H]1CCN(Cc2ccc(OCCCN3CCCCC3)cc2)C1 | 2.37
CC1CCN(C(=O)CSc2nc(-c3ccc(C(C)C)cc3)no2)CC1 | 9.21
CC1(CCCCN2CCC(c3c[nH]c4cnccc34)CC2)C(=O)Nc2cccc(Cl)c21 (stereo not given) | 0.54
COc1ccc2ccccc2c1CCCCN1CCN(CC(c2ccc(F)cc2)N2CCN(C(C)C)CC2)CC1 (stereo not given) | 9.64
O=c1cc(-c2ccc3ccccc3c2)[nH]c2ccccc12 | 2.68
Cc1cccc2nc(-c3ccc(-c4cccc(CNCCCN5CCCC5=O)c4)cc3)[nH]c12 | 9.6
O=C(Nc1cn(-c2ccc(OCc3cccc(F)c3)c(Cl)c2)c2ncncc12)c1ccncc1 | 1.05
O=C(Nc1ccc(-c2nc3ccccc3[nH]2)cc1)C1CCN(Cc2ccccc2)CC1 | 23.4
CC(C)C[C@H](Nc1ccnc(NCC2CCCCC2)n1)C(=O)NCCOc1ccccc1 | 3.02
N#CCCN1CCN(Cc2cccc(-c3ccc(-c4nc5ccccc5[nH]4)cc3)c2)CC1 | 3.22
O=C(c1cccc(-c2cccc(-c3nc4ccccc4[nH]3)c2)c1)N1CCCCC1CN1CCC(O)C1 (stereo not given) | 0.78
CCOC(=O)N1CCN(C(=O)Nc2ccc(Cl)cc2)CC1 | 1
O=C(NCCc1ccc(Cl)c(Cl)c1)[C@@H]1CCCN1C(=O)c1ccc(O)c(-c2ccc(Cl)c(Cl)c2)c1 | -0.69
O=C1CCCN1CCCNCc1cccc(-c2cccc(-c3nc4cc(C(F)(F)F)ccc4[nH]3)c2)c1 | 3.94
Clc1cc(Nc2ncnc3sc(C#Cc4ncc[nH]4)cc23)ccc1OCc1ccccn1 | 5.1
